Each recorded value in this set is attributed to the RNAGym collection of RNA variant scans (doi:10.7554/elife.80360).

B1: HDV Ribozyme (parent)
chain: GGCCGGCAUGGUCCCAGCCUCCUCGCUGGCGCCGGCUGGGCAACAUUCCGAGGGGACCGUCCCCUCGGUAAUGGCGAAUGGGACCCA

# Variants of: B1
# EXPERIMENT SUMMARY: self-cleavage, relative activity (ratio to wild type); higher = more cleavage; co-transcriptional
Binary call on self-cleavage: 1 (yes) from 0.3 upward, 0 (no) beneath that.

Some solved entries appear below for comparison.
G28C U46A    0 (no)
G10C G73U    0 (no)
G29C C62U    0 (no)

Now for another entry.
Query: hey, is self-cleavage for this one >= 0.3? A45G C62A
Response: 1 (yes)
